System: Echinochloa crus-gaffi (ECHCG)
Assay notes: Post-emergence glasshouse test, visual injury, ECHCG
Format: in vivo, Echinochloa crus-galli
Condition info: 336 h, Table 3, post-emergence, 125 g/ha, 14±1 days post application
Readout kind: pest or weed control at 125 g/ha
Put your answer as a value accompanied by its unit after it.

Entry Cc1cc(-c2cnc(N3CCC(C(N)=O)CC3)nc2-c2ccc(C)s2)on1 [Compound 88] , pest or weed control at 125 g/ha reported as 20%

get_value(item= Cc1cc(-c2cnc(NCc3ccc(F)cc3)nc2C(F)F)on1 [Compound 120] , readout=pest or weed control at 125 g/ha) returns 20%

Per the record, Cc1cc(-c2cnc(NCc3ccc(C#N)cc3)nc2C(C)C)on1 [Compound 118] has pest or weed control at 125 g/ha of 20%

###

System: Veronica persica (VERPE)
Assay notes: Post-emergence glasshouse test, visual injury, VERPE
Type: in vivo
Condition info: 336 h, Table 3, post-emergence, 500 g/ha, 14±1 days post application
# label = yes (1) if pest or weed control at 500 g/ha >= 30% else no (0)

Reported pest or weed control at 500 g/ha at or above 30%? Cc1cc(-c2cnc(NC(C)C)nc2C(C)(C)C)on1
no (0)

API: above_or_equal(metric=pest or weed control at 500 g/ha, cutoff=30%) for item Cc1cc(-c2cnc(N3CCN(c4ncccn4)CC3)nc2C(C)(C)C)on1
no (0)

Does the reported pest or weed control at 500 g/ha for Cc1cc(-c2cnc(NCCn3nccc3C)nc2C(C)C)on1 fall at or above the 30% mark?
yes (1)

Say whether Cc1cc(-c2cnc(N3CCCCC3)nc2-c2ccc(C)o2)on1 shows pest or weed control at 500 g/ha of 30% or more.
no (0)

Say whether Cc1cc(-c2cnc(NCCc3c(C)noc3C)nc2C(C)(C)C)on1 shows pest or weed control at 500 g/ha of 30% or more.
no (0)

Threshold query (pest or weed control at 500 g/ha >= 30%) on Cc1cc(-c2cnc(N3CCCCC3)nc2C2CC2)on1
no (0)

Form field: pest or weed control at 500 g/ha at least 30%? Entry: Cc1cc(-c2cnc(N3CCCC3)nc2C(C)C)on1
yes (1)

For this molecule, is measured pest or weed control at 500 g/ha 30% or higher? Cc1cc(-c2cnc(N3CCOCC3)nc2-c2ccc(C)o2)on1
no (0)

Test whether the molecule Cc1cc(-c2cnc(N3CCC(C(N)=O)CC3)nc2C(C)(C)C)on1 records pest or weed control at 500 g/ha of 30% or higher.
yes (1)

Is pest or weed control at 500 g/ha for Cc1cc(-c2cnc(NCC3COCCO3)nc2C2CC2)on1 (centres unmarked) at or above 30%?
yes (1)

Item C=COCCCNc1ncc(-c2cc(C)no2)c(C(C)C)n1 with pest or weed control at 500 g/ha of 30% or above?
yes (1)

Check this molecule for pest or weed control at 500 g/ha at or above 30%: Cc1cc(-c2cnc(N3CCC(O)C(C)C3)nc2-c2ccc(C)o2)on1 (centres unmarked)
no (0)

Hello, I need to know if Cc1cc(-c2cnc(NCc3cccnc3)nc2-c2ccc(C)o2)on1 has measured pest or weed control at 500 g/ha not below 30%. Thanks!
yes (1)

Please check the record Cc1cc(-c2cnc(NCc3ccc4c(c3)OCO4)nc2C(C)(C)C)on1 and state if its pest or weed control at 500 g/ha is at or above 30%.
yes (1)

Could you please find out whether Cc1cc(-c2cnc(NC(C)C)nc2-c2ccc(C)o2)on1 has pest or weed control at 500 g/ha that meets 30% or exceeds it?
no (0)

Is pest or weed control at 500 g/ha for Cc1cc(-c2cnc(N)nc2-c2ccc(C)o2)on1 at or above 30%?
no (0)

I'd appreciate it if you could say whether CCN(C)c1ncc(-c2cc(C)no2)c(C(C)C)n1 has pest or weed control at 500 g/ha at least equal to 30%.
yes (1)

Does pest or weed control at 500 g/ha meet or surpass 30% for COc1ccc(CNc2ncc(-c3cc(C)no3)c(C3CC3)n2)cc1OC ?
yes (1)

Please tell me: is the molecule Cc1cc(-c2cnc(NCCCN3CCC(C)CC3)nc2-c2ccco2)on1 at or over 30% in terms of pest or weed control at 500 g/ha?
no (0)

Reported pest or weed control at 500 g/ha at or above 30%? Cc1cc(-c2cnc(N(C)C)nc2-c2ccc(C)o2)on1
no (0)

Please check the record Cc1cc(-c2cnc(NCc3cccnc3)nc2C(C)(C)C)on1 and state if its pest or weed control at 500 g/ha is at or above 30%.
yes (1)

Check this molecule for pest or weed control at 500 g/ha at or above 30%: COCCNc1ncc(-c2cc(C)no2)c(-c2ccncc2)n1
yes (1)

For this molecule, is measured pest or weed control at 500 g/ha 30% or higher? Cc1cc(-c2cnc(NCc3ccccc3F)nc2C2CC2)on1
yes (1)

Is pest or weed control at 500 g/ha for Cc1cc(-c2cnc(NC3CC3)nc2C(C)C)on1 at or above 30%?
yes (1)

Form field: pest or weed control at 500 g/ha at least 30%? Entry: Cc1cc(-c2cnc(N3CCNC(=O)C3)nc2-c2ccc(C)o2)on1
no (0)
